Data provenance is patent US9975854B2.

# system_tested: μ-opioid receptor (Homo sapiens (Human), UniProt P35372)
# experiment_description: μ-opioid receptor [35S]GTPγS functional assay, HEK-293 or CHO cells
# Assay type: biochemical
# condition_info: HEK-293 or CHO cells; relative to DAMGO
# Emax listing for each entry below

molecule	system_tested	Emax, %
CN1CC[C@@]2(C)c3cc(O)ccc3C[C@@H]1[C@@H]2NCc1ccccc1	μ-opioid receptor (Homo sapiens (Human), UniProt P35372)	17.1
CN1CC[C@@]2(C)c3cc(O)ccc3C[C@@H]1[C@@H]2NC(=O)CC(=O)Nc1ccc(F)cc1F	μ-opioid receptor (Homo sapiens (Human), UniProt P35372)	2.67
CN1CCC2(C)c3cc(O)ccc3C[C@@H]1C2NS(=O)(=O)c1ccccc1 (stereo in doubt)	μ-opioid receptor (Homo sapiens (Human), UniProt P35372)	-1
CN1CC[C@@]2(C)c3cc(O)ccc3C[C@@H]1[C@@H]2N(C)S(=O)(=O)Cc1ccccc1	μ-opioid receptor (Homo sapiens (Human), UniProt P35372)	25
